Values compiled from patent US8710233B2.

Experimental system: vanilloid receptor 1 (VR1/TRPV1) of the rat species (Rattus norvegicus, UniProt O35433)
Construct: The spinal column is removed from decapitated rats; from tissue; host or cells: primary cells dissociated from rat dorsal root ganglia
Sequence (O35433 whole entry): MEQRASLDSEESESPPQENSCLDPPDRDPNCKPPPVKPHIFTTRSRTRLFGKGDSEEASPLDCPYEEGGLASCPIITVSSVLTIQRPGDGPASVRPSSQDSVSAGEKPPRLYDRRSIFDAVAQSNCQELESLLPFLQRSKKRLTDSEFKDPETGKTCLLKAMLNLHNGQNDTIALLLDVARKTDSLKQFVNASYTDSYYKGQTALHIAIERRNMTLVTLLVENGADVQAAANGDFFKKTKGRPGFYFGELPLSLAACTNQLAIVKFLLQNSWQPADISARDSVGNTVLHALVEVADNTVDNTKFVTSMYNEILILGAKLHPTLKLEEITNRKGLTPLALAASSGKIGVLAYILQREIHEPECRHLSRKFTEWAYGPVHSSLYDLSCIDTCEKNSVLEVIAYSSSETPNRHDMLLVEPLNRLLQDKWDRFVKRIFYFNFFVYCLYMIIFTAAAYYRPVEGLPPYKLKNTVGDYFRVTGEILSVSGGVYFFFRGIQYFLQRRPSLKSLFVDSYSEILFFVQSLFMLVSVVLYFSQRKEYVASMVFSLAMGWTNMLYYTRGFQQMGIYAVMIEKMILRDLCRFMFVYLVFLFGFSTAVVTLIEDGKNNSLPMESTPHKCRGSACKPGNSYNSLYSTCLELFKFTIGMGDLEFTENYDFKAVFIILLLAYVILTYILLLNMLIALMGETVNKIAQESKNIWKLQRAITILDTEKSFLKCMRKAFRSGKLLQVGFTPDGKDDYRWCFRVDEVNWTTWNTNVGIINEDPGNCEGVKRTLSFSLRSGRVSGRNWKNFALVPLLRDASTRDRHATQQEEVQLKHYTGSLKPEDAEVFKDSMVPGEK
Assay summary: FLIPR Ca2+ influx assay on rat dorsal root ganglia cells (pharmacological method I)
Assay type: cell-based
Settings: Table 2; displacement of capsaicin (100 nM), Cheng-Prusoff; read-out: Ki (rat)
Protocol: I. Functional Investigation of the Vanilloid Receptor 1 (VR1/TRPV1 Receptor) The agonistic or antagonistic action of the substances to be investigated on the vanilloid receptor 1 (VR1/TRPV1) of the rat species may be determined by the following assay. […] The DRGs are in each case repeatedly suspended, drawn by means of a syringe through no. […] The resultant pellet is in each case resuspended in 250 μL of complete medium and the cell count determined. […]
Examples of molecules with documented log10(Ki) follow.
Measurement name: log10(Ki) (log10 of the value in nM)

- Molecule: "CC(C(=O)NCc1ccc(C(F)(F)F)nc1N1CCCCC1)c1ccc(NS(C)(=O)=O)c(Cl)c1 (stereo not drawn)"
  Experimental system: "vanilloid receptor 1 (VR1/TRPV1) of the rat species (Rattus norvegicus, UniProt O35433)"
  log10(Ki): 0.80
- Molecule: "CC(C(=O)NCc1ccc(C(F)(F)F)cc1N1CCCCC1)c1ccc(NS(C)(=O)=O)c(F)c1 (stereo not drawn)"
  Experimental system: "vanilloid receptor 1 (VR1/TRPV1) of the rat species (Rattus norvegicus, UniProt O35433)"
  log10(Ki): 0.41
- Molecule: "CC(C(=O)NCc1ccc(C(F)(F)F)nc1N1CCCC1)c1ccc(NS(C)(=O)=O)c(Cl)c1 (stereo not drawn)"
  Experimental system: "vanilloid receptor 1 (VR1/TRPV1) of the rat species (Rattus norvegicus, UniProt O35433)"
  log10(Ki): 1.56
- Molecule: "C[C@H](C(=O)NCc1ccc(C(F)(F)F)nc1N1CCOCC1)c1ccc(NS(C)(=O)=O)c(F)c1"
  Experimental system: "vanilloid receptor 1 (VR1/TRPV1) of the rat species (Rattus norvegicus, UniProt O35433)"
  log10(Ki): 2.09
- Molecule: "Cc1nc(C(F)(F)F)ccc1CNC(=O)C(C)c1ccc(NS(C)(=O)=O)c(F)c1 (stereo not drawn)"
  Experimental system: "vanilloid receptor 1 (VR1/TRPV1) of the rat species (Rattus norvegicus, UniProt O35433)"
  log10(Ki): 2.84
- Molecule: "CC(C(=O)NCc1ccc(C(F)(F)F)cc1N1CCOCC1)c1ccc(NS(C)(=O)=O)c(F)c1 (stereo not drawn)"
  Experimental system: "vanilloid receptor 1 (VR1/TRPV1) of the rat species (Rattus norvegicus, UniProt O35433)"
  log10(Ki): 0.68
- Molecule: "CC(C(=O)NCc1ccc(C(F)(F)F)nc1N1CCCCC1)c1ccc(NS(C)(=O)=O)c(Br)c1 (stereo not drawn)"
  Experimental system: "vanilloid receptor 1 (VR1/TRPV1) of the rat species (Rattus norvegicus, UniProt O35433)"
  log10(Ki): 0.71
- Molecule: "CC(C(=O)NCc1ccc(C(F)(F)F)nc1-c1ccccc1)c1ccc(NS(C)(=O)=O)c(F)c1 (stereo not drawn)"
  Experimental system: "vanilloid receptor 1 (VR1/TRPV1) of the rat species (Rattus norvegicus, UniProt O35433)"
  log10(Ki): 0.69
- Molecule: "CC(C(=O)NCc1ccc(C(F)(F)F)cc1N1CCCC1)c1ccc(NS(C)(=O)=O)c(F)c1 (stereo not drawn)"
  Experimental system: "vanilloid receptor 1 (VR1/TRPV1) of the rat species (Rattus norvegicus, UniProt O35433)"
  log10(Ki): 0.40
- Molecule: "CC(C(=O)NCc1ccc(C(F)(F)F)nc1N1CCN(Cc2ccccc2)CC1)c1ccc(NS(C)(=O)=O)c(F)c1 (stereo not drawn)"
  Experimental system: "vanilloid receptor 1 (VR1/TRPV1) of the rat species (Rattus norvegicus, UniProt O35433)"
  log10(Ki): 0.82
- Molecule: "CC(C(=O)NCc1ccc(C(F)(F)F)nc1N1CCCC1)c1ccc(NS(C)(=O)=O)c(F)c1 (stereo not drawn)"
  Experimental system: "vanilloid receptor 1 (VR1/TRPV1) of the rat species (Rattus norvegicus, UniProt O35433)"
  log10(Ki): 0.58
- Molecule: "CC(C(=O)NCc1ccc(C(F)(F)Cl)nc1N1CCCCC1)c1ccc(NS(C)(=O)=O)c(F)c1 (stereo not drawn)"
  Experimental system: "vanilloid receptor 1 (VR1/TRPV1) of the rat species (Rattus norvegicus, UniProt O35433)"
  log10(Ki): -0.10
- Molecule: "CCCCOc1nc(C(F)(F)F)ccc1CNC(=O)C(C)c1ccc(NS(C)(=O)=O)c(F)c1 (stereo not drawn)"
  Experimental system: "vanilloid receptor 1 (VR1/TRPV1) of the rat species (Rattus norvegicus, UniProt O35433)"
  log10(Ki): 0.00
- Molecule: "CC(C(=O)NCc1ccc(C(F)(F)F)cc1N1CCCCC1)c1ccc(NS(C)(=O)=O)c(Cl)c1 (stereo not drawn)"
  Experimental system: "vanilloid receptor 1 (VR1/TRPV1) of the rat species (Rattus norvegicus, UniProt O35433)"
  log10(Ki): 0.57
- Molecule: "CC(C(=O)NCc1ccc(C(F)(F)F)nc1OC1CCCC1)c1ccc(NS(C)(=O)=O)c(F)c1 (stereo not drawn)"
  Experimental system: "vanilloid receptor 1 (VR1/TRPV1) of the rat species (Rattus norvegicus, UniProt O35433)"
  log10(Ki): 0.11
- Molecule: "CC(C(=O)NCc1ccc(C(F)(F)F)nc1N1CCCCC1)c1ccc(NS(C)(=O)=O)c(F)c1 (stereo not drawn)"
  Experimental system: "vanilloid receptor 1 (VR1/TRPV1) of the rat species (Rattus norvegicus, UniProt O35433)"
  log10(Ki): 0.54
- Molecule: "CC(C(=O)NCc1ccc(C(C)(C)C)cc1C#N)c1ccc(NS(C)(=O)=O)c(F)c1 (stereo not drawn)"
  Experimental system: "vanilloid receptor 1 (VR1/TRPV1) of the rat species (Rattus norvegicus, UniProt O35433)"
  log10(Ki): 0.95
- Molecule: "CC(C(=O)NCc1ccc(C(F)(F)F)nc1N1CCOCC1)c1ccc(NS(C)(=O)=O)c(F)c1 (stereo not drawn)"
  Experimental system: "vanilloid receptor 1 (VR1/TRPV1) of the rat species (Rattus norvegicus, UniProt O35433)"
  log10(Ki): 0.63
- Molecule: "CC(C(=O)NCc1ccc(C(F)(F)F)cc1N1CCCC1)c1ccc(NS(C)(=O)=O)c(Br)c1 (stereo not drawn)"
  Experimental system: "vanilloid receptor 1 (VR1/TRPV1) of the rat species (Rattus norvegicus, UniProt O35433)"
  log10(Ki): 0.38
- Molecule: "C[C@H](C(=O)NCc1ccc(C(F)(F)F)cc1N1CCCCC1)c1ccc(NS(C)(=O)=O)c(F)c1"
  Experimental system: "vanilloid receptor 1 (VR1/TRPV1) of the rat species (Rattus norvegicus, UniProt O35433)"
  log10(Ki): -0.30
- Molecule: "C[C@H](C(=O)NCc1ccc(C(F)(F)F)nc1N1CCCCC1)c1ccc(NS(C)(=O)=O)c(F)c1"
  Experimental system: "vanilloid receptor 1 (VR1/TRPV1) of the rat species (Rattus norvegicus, UniProt O35433)"
  log10(Ki): 0.04
- Molecule: "CC(C(=O)NCc1ccc(C(F)(F)F)cc1Cl)c1ccc(NS(C)(=O)=O)c(F)c1 (stereo not drawn)"
  Experimental system: "vanilloid receptor 1 (VR1/TRPV1) of the rat species (Rattus norvegicus, UniProt O35433)"
  log10(Ki): 1.11
- Molecule: "CC(C(=O)NCc1ccc(C(F)(F)F)nc1Br)c1ccc(NS(C)(=O)=O)c(F)c1 (stereo not drawn)"
  Experimental system: "vanilloid receptor 1 (VR1/TRPV1) of the rat species (Rattus norvegicus, UniProt O35433)"
  log10(Ki): 1.98
- Molecule: "C[C@@H](C(=O)NCc1ccc(C(F)(F)F)nc1N1CCCCC1)c1ccc(NS(C)(=O)=O)c(F)c1"
  Experimental system: "vanilloid receptor 1 (VR1/TRPV1) of the rat species (Rattus norvegicus, UniProt O35433)"
  log10(Ki): 0.04
